# TESTED_TARGET: ZFC3H1_C1778 (Homo sapiens)
# Construct: endogenous in cells; host or cells: 22Rv1
# Sequence (O60293 whole entry): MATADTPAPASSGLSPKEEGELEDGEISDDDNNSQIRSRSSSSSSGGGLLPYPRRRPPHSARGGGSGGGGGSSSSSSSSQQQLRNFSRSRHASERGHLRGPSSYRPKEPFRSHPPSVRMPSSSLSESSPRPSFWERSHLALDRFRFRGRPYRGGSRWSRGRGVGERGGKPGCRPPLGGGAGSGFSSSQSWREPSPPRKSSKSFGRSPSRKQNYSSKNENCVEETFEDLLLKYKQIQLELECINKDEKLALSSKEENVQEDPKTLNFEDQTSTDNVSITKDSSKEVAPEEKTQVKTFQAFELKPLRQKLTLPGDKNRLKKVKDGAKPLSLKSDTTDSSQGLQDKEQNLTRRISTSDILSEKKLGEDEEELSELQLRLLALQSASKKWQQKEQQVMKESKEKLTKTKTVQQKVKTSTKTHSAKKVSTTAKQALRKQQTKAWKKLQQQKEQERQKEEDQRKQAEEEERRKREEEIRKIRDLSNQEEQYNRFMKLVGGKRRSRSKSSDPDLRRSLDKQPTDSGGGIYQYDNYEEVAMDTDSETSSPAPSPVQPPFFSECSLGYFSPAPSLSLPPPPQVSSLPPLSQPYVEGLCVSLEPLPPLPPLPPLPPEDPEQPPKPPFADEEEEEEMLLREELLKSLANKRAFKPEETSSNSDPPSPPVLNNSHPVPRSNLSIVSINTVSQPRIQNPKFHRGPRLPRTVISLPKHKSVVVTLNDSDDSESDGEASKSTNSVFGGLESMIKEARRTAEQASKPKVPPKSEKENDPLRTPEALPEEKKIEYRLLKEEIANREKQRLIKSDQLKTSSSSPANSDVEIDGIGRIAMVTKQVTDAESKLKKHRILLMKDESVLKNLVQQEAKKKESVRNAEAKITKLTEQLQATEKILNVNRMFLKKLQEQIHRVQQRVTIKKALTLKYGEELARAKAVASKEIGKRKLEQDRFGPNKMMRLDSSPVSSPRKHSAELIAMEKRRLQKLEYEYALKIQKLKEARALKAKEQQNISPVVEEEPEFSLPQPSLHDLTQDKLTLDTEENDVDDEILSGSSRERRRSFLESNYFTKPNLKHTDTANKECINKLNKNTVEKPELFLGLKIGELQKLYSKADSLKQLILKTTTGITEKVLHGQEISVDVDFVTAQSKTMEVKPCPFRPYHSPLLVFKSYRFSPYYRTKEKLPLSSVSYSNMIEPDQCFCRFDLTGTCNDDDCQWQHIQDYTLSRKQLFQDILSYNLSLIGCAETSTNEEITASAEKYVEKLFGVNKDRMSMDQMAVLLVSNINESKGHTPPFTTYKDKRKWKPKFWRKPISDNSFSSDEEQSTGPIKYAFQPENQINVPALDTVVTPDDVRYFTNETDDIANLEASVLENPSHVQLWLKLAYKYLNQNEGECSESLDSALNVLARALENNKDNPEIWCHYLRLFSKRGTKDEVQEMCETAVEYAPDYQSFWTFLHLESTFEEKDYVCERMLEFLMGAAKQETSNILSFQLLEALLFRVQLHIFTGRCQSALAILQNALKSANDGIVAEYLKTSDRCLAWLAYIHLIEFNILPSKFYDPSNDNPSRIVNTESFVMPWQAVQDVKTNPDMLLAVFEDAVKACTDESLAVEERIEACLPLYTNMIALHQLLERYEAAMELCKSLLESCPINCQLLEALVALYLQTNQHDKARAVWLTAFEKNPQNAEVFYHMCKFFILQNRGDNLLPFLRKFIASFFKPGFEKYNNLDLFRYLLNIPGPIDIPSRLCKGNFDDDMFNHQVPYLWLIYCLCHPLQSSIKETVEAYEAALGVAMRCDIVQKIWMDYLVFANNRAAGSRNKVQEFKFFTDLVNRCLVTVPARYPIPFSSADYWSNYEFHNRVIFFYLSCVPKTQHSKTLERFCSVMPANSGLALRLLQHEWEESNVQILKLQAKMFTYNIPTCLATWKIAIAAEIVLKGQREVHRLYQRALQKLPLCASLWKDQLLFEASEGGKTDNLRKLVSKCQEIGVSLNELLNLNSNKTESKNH
# EXPERIMENT_NOTES: IA-DTB cysteine engagement
# Format: binding
# RUN_CONDITIONS: 22Rv1 cells, 20 μM probe, 1 h, relative to DMSO

[
  {
    "COMPOUND": "C=CC(=O)N1C[C@H](c2ccc(Br)cc2)[C@H]1C(=O)Nc1cccc2cccnc12 [MY-3B]",
    "% engagement ZFC3H1_C1778 (%)": "−22.75"
  },
  {
    "COMPOUND": "C=CC(=O)N1C[C@@H](c2ccc(Br)cc2)[C@H]1C(=O)Nc1cccc2cccnc12",
    "% engagement ZFC3H1_C1778 (%)": 70.75
  },
  {
    "COMPOUND": "C=CC(=O)N1C[C@H](c2ccc(Br)cc2)[C@H]1C(=O)Nc1cccc2cccnc12 [MY-3A]",
    "% engagement ZFC3H1_C1778 (%)": 47.75
  },
  {
    "COMPOUND": "C=CC(=O)N1C[C@H](c2ccc(Br)cc2)[C@@H]1C(=O)Nc1cccc2cccnc12",
    "% engagement ZFC3H1_C1778 (%)": 7
  }
]

---

# TESTED_TARGET: GSTO1_C32 (Homo sapiens)
# Construct: endogenous in cells; host or cells: 22Rv1
# Sequence (P78417 1-241): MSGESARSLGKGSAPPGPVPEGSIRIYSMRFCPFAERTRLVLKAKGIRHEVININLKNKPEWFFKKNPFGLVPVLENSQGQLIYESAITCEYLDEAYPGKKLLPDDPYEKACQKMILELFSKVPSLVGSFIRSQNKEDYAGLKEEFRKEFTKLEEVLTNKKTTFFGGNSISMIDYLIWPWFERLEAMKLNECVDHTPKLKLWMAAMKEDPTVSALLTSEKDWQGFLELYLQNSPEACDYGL
# EXPERIMENT_NOTES: IA-DTB cysteine engagement
# Format: binding
# RUN_CONDITIONS: 22Rv1 cells, 20 μM probe, 1 h, relative to DMSO
MEASURED_ENDPOINT: % engagement GSTO1_C32 (%)

[
  {
    "COMPOUND": "C=CC(=O)N1C[C@H](c2ccc(Br)cc2)[C@@H]1C(=O)Nc1cccc2cccnc12",
    "UNITS_OF_MEASURE": "%",
    "MEASURED": 82
  },
  {
    "COMPOUND": "C=CC(=O)N1C[C@@H](c2ccc(Br)cc2)[C@H]1C(=O)Nc1cccc2cccnc12",
    "UNITS_OF_MEASURE": "%",
    "MEASURED": 22
  },
  {
    "COMPOUND": "C=CC(=O)N1C[C@H](c2ccc(Br)cc2)[C@H]1C(=O)Nc1cccc2cccnc12 [MY-3A]",
    "UNITS_OF_MEASURE": "%",
    "MEASURED": 79
  },
  {
    "COMPOUND": "C=CC(=O)N1C[C@H](c2ccc(Br)cc2)[C@H]1C(=O)Nc1cccc2cccnc12 [MY-3B]",
    "UNITS_OF_MEASURE": "%",
    "MEASURED": 80.5
  }
]

---

# TESTED_TARGET: NSD2_C1018 (Homo sapiens)
# Construct: endogenous in cells; host or cells: 22Rv1
# Sequence (O96028 whole entry): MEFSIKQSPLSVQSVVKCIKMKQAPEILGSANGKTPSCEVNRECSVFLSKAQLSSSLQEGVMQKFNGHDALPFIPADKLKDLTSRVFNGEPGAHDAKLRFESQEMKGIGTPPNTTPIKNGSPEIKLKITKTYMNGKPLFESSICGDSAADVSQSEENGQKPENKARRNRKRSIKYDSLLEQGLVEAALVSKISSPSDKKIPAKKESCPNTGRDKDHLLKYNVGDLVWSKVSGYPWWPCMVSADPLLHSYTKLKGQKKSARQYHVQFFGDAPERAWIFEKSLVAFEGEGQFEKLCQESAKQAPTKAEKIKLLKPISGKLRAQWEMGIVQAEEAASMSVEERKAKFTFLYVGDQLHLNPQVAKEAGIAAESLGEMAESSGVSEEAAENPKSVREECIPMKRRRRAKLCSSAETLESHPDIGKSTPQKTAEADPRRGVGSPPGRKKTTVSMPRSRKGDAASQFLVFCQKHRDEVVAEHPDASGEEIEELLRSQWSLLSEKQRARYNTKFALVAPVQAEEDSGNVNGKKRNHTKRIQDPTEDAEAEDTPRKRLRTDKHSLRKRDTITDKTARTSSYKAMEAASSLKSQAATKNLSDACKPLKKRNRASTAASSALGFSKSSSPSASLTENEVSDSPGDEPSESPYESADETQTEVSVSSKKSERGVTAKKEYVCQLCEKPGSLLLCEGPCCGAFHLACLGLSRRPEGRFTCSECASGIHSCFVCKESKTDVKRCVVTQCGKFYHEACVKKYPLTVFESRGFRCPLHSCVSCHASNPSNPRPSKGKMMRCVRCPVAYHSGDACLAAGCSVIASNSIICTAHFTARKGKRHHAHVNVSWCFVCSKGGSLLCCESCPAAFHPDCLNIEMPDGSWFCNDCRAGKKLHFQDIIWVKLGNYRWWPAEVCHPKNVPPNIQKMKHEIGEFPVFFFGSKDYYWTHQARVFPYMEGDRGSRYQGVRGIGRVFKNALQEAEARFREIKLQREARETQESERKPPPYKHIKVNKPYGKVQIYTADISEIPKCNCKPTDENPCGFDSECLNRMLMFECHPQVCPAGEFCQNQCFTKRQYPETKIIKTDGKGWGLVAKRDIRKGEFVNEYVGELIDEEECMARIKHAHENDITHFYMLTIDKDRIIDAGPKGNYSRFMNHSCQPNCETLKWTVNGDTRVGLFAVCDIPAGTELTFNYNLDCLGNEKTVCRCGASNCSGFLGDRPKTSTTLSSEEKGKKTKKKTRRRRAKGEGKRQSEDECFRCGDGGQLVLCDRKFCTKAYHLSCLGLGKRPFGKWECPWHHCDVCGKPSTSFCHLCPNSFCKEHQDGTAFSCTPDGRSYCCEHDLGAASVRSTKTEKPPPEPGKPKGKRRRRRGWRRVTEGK
# EXPERIMENT_NOTES: IA-DTB cysteine engagement
# Format: binding
# RUN_CONDITIONS: 22Rv1 cells, 20 μM probe, 1 h, relative to DMSO
# Experimental: Sample preparation: Cells (adherent: 15 cm dishes, suspension: 2 million cells/mL) were treated with electrophilic probes in situ for indicated times and concentrations, washed with ice-cold PBS, and flash frozen in liquid nitrogen. […] Whole cell lysates protein content was measured using a standard DC protein assay (Bio-Rad) and 500 μL (2 mg/mL protein content) were treated with 5 μL of 10 mM 1A-DTB (in DMSO) for 1 h at ambient temperature with occasional vortexing. […]

[
  {
    "MOLECULE": "C=CC(=O)N1C[C@H](c2ccc(Br)cc2)[C@H]1C(=O)Nc1cccc2cccnc12 [MY-3A]",
    "TESTED_TARGET": "NSD2_C1018 (Homo sapiens)",
    "% engagement NSD2_C1018 (%)": 36.75
  },
  {
    "MOLECULE": "C=CC(=O)N1C[C@H](c2ccc(Br)cc2)[C@H]1C(=O)Nc1cccc2cccnc12 [MY-3B]",
    "TESTED_TARGET": "NSD2_C1018 (Homo sapiens)",
    "% engagement NSD2_C1018 (%)": 67
  },
  {
    "MOLECULE": "C=CC(=O)N1C[C@H](c2ccc(Br)cc2)[C@@H]1C(=O)Nc1cccc2cccnc12",
    "TESTED_TARGET": "NSD2_C1018 (Homo sapiens)",
    "% engagement NSD2_C1018 (%)": 43.75
  },
  {
    "MOLECULE": "C=CC(=O)N1C[C@@H](c2ccc(Br)cc2)[C@H]1C(=O)Nc1cccc2cccnc12",
    "TESTED_TARGET": "NSD2_C1018 (Homo sapiens)",
    "% engagement NSD2_C1018 (%)": 16.5
  }
]
